system: Murine Leukemia L1210/DACH; assay: In vivo antitumor activity against murine leukemia L1210/DACH (Example 3, Table 6); parameters: species or system BDF1 mice; settings: L1210/DACH i.p., BDF1 mice; drug i.p. days 1, 5, 9
Test readout: MTD (Maximum Tolerated Dose) (mg/kg/injection)
Write the answer as a number in mg/kg/injection, unit excluded.

The following compounds have reported results that may help.
Compound: NC1CCC(N)CC1.O.O=C([O-])C1(C(=O)[O-])CCC1.[Pt+2]
Assayed system: Murine Leukemia L1210/DACH
Numeric readout: 200
//
Compound: N.N.[Cl][Pt][Cl] [Cis-platin, cis-diaminedichloroplatinum(II), reference compound]
Assayed system: Murine Leukemia L1210/DACH
Numeric readout: 5.0
//
Compound: NC1CCC(N)CC1.O.O=S(=O)([O-])[O][Pt+] (stereo not shown)
Assayed system: Murine Leukemia L1210/DACH
Numeric readout: 1.56
//
Compound: N[C@@H]1CCCC[C@H]1N.[Cl][Pt+2]([Cl])([Cl])[Cl] [Tetraplatin, reference compound]
Assayed system: Murine Leukemia L1210/DACH
Numeric readout: 3.1
//
Compound: CC(C(=O)[O-])C(=O)[O-].N[C@H]1CC[C@@H](N)CC1.O.[Pt+2]
Assayed system: Murine Leukemia L1210/DACH
Numeric readout: 100
//
Compound: NC1CCC(N)CC1.[Cl][Pt]([Cl])([Cl])[Cl] (stereo not shown)
Assayed system: Murine Leukemia L1210/DACH
Numeric readout: 3.1

Then this compound:
IN: Give the measured MTD (Maximum Tolerated Dose) of "NC1CCC(N)CC1.O=C1[O][Pt][O]C(=O)C1O" .
OUT: 50
